- TARGET_OR_TEST_SYSTEM: jack bean urease (Canavalia ensiformis, UniProt P07374)
- Sequence (P07374 whole entry, looked up): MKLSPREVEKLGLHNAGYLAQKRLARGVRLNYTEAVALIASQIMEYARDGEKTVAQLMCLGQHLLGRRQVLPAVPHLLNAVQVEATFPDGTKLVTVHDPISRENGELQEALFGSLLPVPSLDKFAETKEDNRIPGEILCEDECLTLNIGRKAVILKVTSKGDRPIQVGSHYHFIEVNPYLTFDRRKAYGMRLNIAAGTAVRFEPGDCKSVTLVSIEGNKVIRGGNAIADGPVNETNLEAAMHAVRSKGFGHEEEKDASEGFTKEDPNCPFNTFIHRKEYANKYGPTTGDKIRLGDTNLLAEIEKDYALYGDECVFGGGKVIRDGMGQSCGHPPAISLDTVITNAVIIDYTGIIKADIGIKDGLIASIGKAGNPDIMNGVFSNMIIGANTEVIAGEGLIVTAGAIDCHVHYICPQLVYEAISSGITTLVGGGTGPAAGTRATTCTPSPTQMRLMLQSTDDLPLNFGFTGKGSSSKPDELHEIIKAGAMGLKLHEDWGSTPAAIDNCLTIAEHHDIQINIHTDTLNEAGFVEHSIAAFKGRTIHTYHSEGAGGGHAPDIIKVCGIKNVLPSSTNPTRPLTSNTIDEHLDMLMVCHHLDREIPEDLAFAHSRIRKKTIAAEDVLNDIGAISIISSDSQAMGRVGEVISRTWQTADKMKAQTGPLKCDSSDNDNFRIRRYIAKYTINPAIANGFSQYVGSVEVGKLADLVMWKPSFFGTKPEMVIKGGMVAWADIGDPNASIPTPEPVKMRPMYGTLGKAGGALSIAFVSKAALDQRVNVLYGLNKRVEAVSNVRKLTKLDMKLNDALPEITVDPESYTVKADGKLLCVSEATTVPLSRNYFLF
- PROCEDURE_DETAILS: indophenol urease inhibition assay ([…] nm)
- Assay type: biochemical
- EXPERIMENTAL_PARAMETERS: read-out: IC50 ± SEM
MEASURED_PROPERTY: IC50 (nM)
Give bare numbers, in nM.

Which IC50 value belongs to NC(N)=S [Thiourea, reference compound] ?
140

Values from paper PMC10675132
